Data origin: paper PMC8364686

- protocol_description: Plasma pharmacokinetics of BI 187004 after single oral doses (LC–MS/MS)
- stated_conditions: male, human, plasma, po, 360 mg
metric: AUC(0-inf) (µM·h)
# number only, unit µM·h dropped from output

QUERY: Field request: AUC(0-inf) | item: N#Cc1ccc2c(c1)[C@H]1CCCN(C(=O)c3ccc4[nH]cnc4c3)[C@H]1C2
RESULT: 191

###

- protocol_description: Plasma pharmacokinetics of BI 187004 after single oral doses (LC–MS/MS)
- stated_conditions: male, human, plasma, po, 80 mg, BI 187004 plasma concentrations, 80 mg single oral, planned time 36 h, Max
metric: concentration at 36 h
Please format your answer as a value with the unit trailing.

QUERY: Field request: concentration at 36 h | item: N#Cc1ccc2c(c1)[C@H]1CCCN(C(=O)c3ccc4[nH]cnc4c3)[C@H]1C2
RESULT: 678 nM

###

- protocol_description: Plasma pharmacokinetics of BI 187004 after single oral doses (LC–MS/MS)
- stated_conditions: male, human, plasma, po, 160 mg, BI 187004 plasma concentrations, 160 mg single oral, planned time 1.5 h, gMean
metric: concentration at 1.5 h (µM)
# number only, unit µM dropped from output

QUERY: Field request: concentration at 1.5 h | item: N#Cc1ccc2c(c1)[C@H]1CCCN(C(=O)c3ccc4[nH]cnc4c3)[C@H]1C2
RESULT: 7.19

###

- protocol_description: Plasma pharmacokinetics of BI 187004 after single oral doses (LC–MS/MS)
- stated_conditions: male, human, plasma, oral, 20 mg, Plasma C10 gMean (range), 20 mg single dose; 10 h
metric: concentration at 10 h
Please format your answer as a value with the unit trailing.

QUERY: Field request: concentration at 10 h | item: N#Cc1ccc2c(c1)[C@H]1CCCN(C(=O)c3ccc4[nH]cnc4c3)[C@H]1C2 [BI 187004]
RESULT: 382 nM

###

- protocol_description: Plasma pharmacokinetics of BI 187004 after single oral doses (LC–MS/MS)
- stated_conditions: male, human, plasma, po, 80 mg, BI 187004 plasma concentrations, 80 mg single oral, planned time 6 h, Min
metric: concentration at 6 h

QUERY: Field request: concentration at 6 h | item: N#Cc1ccc2c(c1)[C@H]1CCCN(C(=O)c3ccc4[nH]cnc4c3)[C@H]1C2
RESULT: 930 nM

###

- protocol_description: Plasma pharmacokinetics of BI 187004 after single oral doses (LC–MS/MS)
- stated_conditions: male, human, plasma, po, 40 mg, BI 187004 plasma concentrations, 40 mg single oral, planned time 48 h, Mean
metric: concentration at 48 h (nM)
# number only, unit nM dropped from output

QUERY: Field request: concentration at 48 h | item: N#Cc1ccc2c(c1)[C@H]1CCCN(C(=O)c3ccc4[nH]cnc4c3)[C@H]1C2
RESULT: 95.6

###

- protocol_description: Plasma pharmacokinetics of BI 187004 after single oral doses (LC–MS/MS)
- stated_conditions: male, human, plasma, po, 40 mg, BI 187004 plasma concentrations, 40 mg single oral, planned time 12 h, Mean
metric: concentration at 12 h (nM)
# number only, unit nM dropped from output

QUERY: Field request: concentration at 12 h | item: N#Cc1ccc2c(c1)[C@H]1CCCN(C(=O)c3ccc4[nH]cnc4c3)[C@H]1C2 [BI 187004]
RESULT: 683
